# Test system: Slc:ICR mice
# run-description: Acute toxicity test in mice (LD50, Miller-Tainter method)
# Format: in vivo
# recorded-conditions: intraperitoneal, Slc:ICR mice (male), death rate on the 14th day
# note: boundary value 70 mg/kg maps to NOT MET; LD50 values below it maps to MET

NC1CCCCC1N.O=C([O-])c1ccc(=O)oc1.O=C([O-])c1ccc(=O)oc1.[Pt+2] [XXII-1]: NOT MET
COCCOCC(=O)[O][Pt][O]C(=O)COCCOC.NC1CCCCC1N [XXVII-1]: MET

# strict comparison: is reported LD50 values < 70 mg/kg? input = O=C(C=Cc1ccc(O)cc1)[O][Pt]1([OH])[NH]C2CCCCC2[NH]1 (centres unmarked) [XXXI-4]
NOT MET

LD50 values under 70 mg/kg? Item: NC1CCCCC1N.O=C([O-])CCc1ccc(O)cc1.O=C([O-])CCc1ccc(O)cc1.[Pt+2] [XXXIV-1]
NOT MET

# check: LD50 values < 70 mg/kg for NC1CCCCC1N.O=C(CN1C(=O)c2ccccc2C1=O)NCC(=O)[O][Pt][O]C(=O)CNC(=O)CN1C(=O)c2ccccc2C1=O [XXVI-1]
NOT MET

In the record for O=C(C=Cc1ccc(C(F)(F)F)cc1)[O][Pt]1([OH])[NH]C2CCCCC2[NH]1 (centres unmarked) [XXXI-5] , is LD50 values less than 70 mg/kg?
NOT MET

hey, is LD50 values for COC(=O)C(Cc1ccccc1)NC(=O)C=CC(=O)[O-].NC1CCCCC1N.[OH-].[Pt+2] (centres unmarked) [XXIX-2] lower than 70 mg/kg or not?
NOT MET

Field: below-cutoff. Rule: recorded LD50 values strictly less than 70 mg/kg. Subject: NC1CCCCC1N.O=C([O-])C1CCCO1.O=C([O-])C1CCCO1.[Pt+2] (racemic) [XXIV-2]
MET

Does the reported LD50 values of NC1CCCCC1N.O=C([O-])C=CC(=O)Nc1cccc(O)c1.[OH-].[Pt+2] [XXIX-4] stay below 70 mg/kg?
MET

A record lists NC1CCCCC1N.O=C([O-])c1cc2ccccc2[nH]1.O=C([O-])c1cc2ccccc2[nH]1.[Pt+2] [XXIII-1] . Is its LD50 values below 70 mg/kg?
NOT MET

Is the reported LD50 values for CC1(C(=O)[O][Pt][O]C(=O)C2(C)CCC3(C)CCC4(C)C(=CC(=O)C5C6(C)CCC(O)C(C)(C)C6CCC54C)C3C2)CCC2(C)CCC3(C)C(=CC(=O)C4C5(C)CCC(O)C(C)(C)C5CCC43C)C2C1.NC1CCCCC1N.O.O.O.O (centres unmarked) [XXXV-1] strictly below 70 mg/kg?
NOT MET

###

Give Survival rate for every item shown.
# Tested on: L1210 murine leukemia cells
# run-description: Antitumor activity against L1210 leukemia in mice
# Type: in vivo, CDF1 mice
# recorded-conditions: Dose 25 mg/kg; number of 30 days survival mice / group

Example entries begin here.
NC1CCCCC1N.O=C([O-])c1ccco1.O=C([O-])c1ccco1.[Pt+2] (centres unmarked) [XXIV-1]: 1/6
CC(=O)N1c2ccccc2CC1C(=O)[O-].CC(=O)N1c2ccccc2CC1C(=O)[O-].NC1CCCCC1N.[Pt+2] (racemic) [XXIII-2]: 0/6
NC1CCCCC1N.O=C([O-])C1CCCO1.O=C([O-])C1CCCO1.[Pt+2] (racemic) [XXIV-2]: 0/6
N.N.O=C([O-])C1(C(=O)[O-])CCC1.[Pt+2] [C B D C A, reference compound]: 0/10

In the following, a different compound is considered.
Supply measured Survival rate of NC1CCCCC1N.O=C([O-])c1cc2ccccc2[nH]1.O=C([O-])c1cc2ccccc2[nH]1.[Pt+2] [XXIII-1] in your reply.
0/6

###

# Test system: L1210 murine leukemia cells
# run-description: Antitumor activity against L1210 leukemia in mice
# Type: in vivo, CDF1 mice
# recorded-conditions: Dose 10 mg/kg, given on 1st, 5th and 9th days after tumor inoculation
Mark Yes for reported T/C (%) of 200% or greater; mark No for anything smaller.

Past entries and their recorded results:
NC1CCCCC1N.O=C([O-])C1CCCO1.O=C([O-])C1CCCO1.[Pt+2] (racemic): Yes
NC1CCCCC1N.O=C([O-])c1cc2ccccc2[nH]1.O=C([O-])c1cc2ccccc2[nH]1.[Pt+2]: No
NC1CCCCC1N.O=C([O-])c1ccco1.O=C([O-])c1ccco1.[Pt+2] (centres unmarked): No

Assess whether reported T/C (%) for N.N.O=C([O-])C1(C(=O)[O-])CCC1.[Pt+2] [C B D C A, reference compound] sits at 200% or higher.
No

Form field: T/C (%) at least 200%? Entry: CC(=O)N1c2ccccc2CC1C(=O)[O-].CC(=O)N1c2ccccc2CC1C(=O)[O-].NC1CCCCC1N.[Pt+2] (racemic)
No

###

For each entry below, report its Survival rate value.
# Tested on: L1210 murine leukemia cells
# run-description: Antitumor activity against L1210 leukemia in mice
# Format: in vivo, CDF1 mice
# recorded-conditions: Dose 200 mg/kg; number of 30 days survival mice / group

NC1CCCCC1N.O=C([O-])c1ccco1.O=C([O-])c1ccco1.[Pt+2] (stereo not drawn) [XXIV-1]: 0/6

Provide the reported Survival rate of each entry below, same order.
1. CC(=O)N1c2ccccc2CC1C(=O)[O-].CC(=O)N1c2ccccc2CC1C(=O)[O-].NC1CCCCC1N.[Pt+2] (racemic) [XXIII-2]
2. NC1CCCCC1N.O=C([O-])c1cc2ccccc2[nH]1.O=C([O-])c1cc2ccccc2[nH]1.[Pt+2] [XXIII-1]
3. NC1CCCCC1N.O=C([O-])C1CCCO1.O=C([O-])C1CCCO1.[Pt+2] (racemic) [XXIV-2]
4. N.N.O=C([O-])C1(C(=O)[O-])CCC1.[Pt+2] [C B D C A, reference compound]
5. NC1CCCCC1N.O=C([O-])c1ccc(=O)oc1.O=C([O-])c1ccc(=O)oc1.[Pt+2] [XXII-1]

["0/6", "0/6", "0/6", "0/10", "0/6"]

###

# Tested on: L1210 murine leukemia cells
# run-description: Antitumor activity against L1210 leukemia in mice
# Type: in vivo, CDF1 mice
# recorded-conditions: Dose 1 mg/kg; number of 30 days survival mice / group
# Protocol: L1210 murine leukemia cells which were subcultured in DBA/2 mouse were inoculated intraperitoneally into CDF1 mice at 10^5 cells/mouse. Each experimental group was composed of 6-10 mice (male, 6-weeks old). Each test compound was administered three times, i.e., on the 1st, 5th and 9th days after tumor inoculation. […] Each compound was dissolved or suspended in 0.05% "Tween 80" solution and administered in mice.
For each record, write down the corresponding Survival rate.

// worked examples, Survival rate included
NC1CCCCC1N.O=C([O-])c1cc2ccccc2[nH]1.O=C([O-])c1cc2ccccc2[nH]1.[Pt+2]: 0/6
NC1CCCCC1N.O=C([O-])c1ccc(=O)oc1.O=C([O-])c1ccc(=O)oc1.[Pt+2]: 0/6
N.N.O=C([O-])C1(C(=O)[O-])CCC1.[Pt+2] [C B D C A, reference compound]: 0/10
NC1CCCCC1N.O=C([O-])C1CCCO1.O=C([O-])C1CCCO1.[Pt+2] (racemic): 0/6
NC1CCCCC1N.O=C([O-])c1ccco1.O=C([O-])c1ccco1.[Pt+2] (stereo not drawn): 0/6

# evaluate next
State its Survival rate: CC(=O)N1c2ccccc2CC1C(=O)[O-].CC(=O)N1c2ccccc2CC1C(=O)[O-].NC1CCCCC1N.[Pt+2] (racemic)
0/6

###

Could you please report measured LD50 values for the items listed next?
# System: Slc:ICR mice
# run-description: Acute toxicity test in mice (LD50, Miller-Tainter method)
# Type: in vivo
# recorded-conditions: intraperitoneal, Slc:ICR mice (male), death rate on the 14th day
Answers are plain numbers, in mg/kg.

Check out these entries, answers already filled in.
O=C([O][Pt]1([O]C(=O)c2ccc(N3C(=O)C=CC3=O)cc2)[NH]C2CCCCC2[NH]1)c1ccc(N2C(=O)C=CC2=O)cc1 (stereo not drawn): 70
NC1CCCCC1N.O=C([O-])c1ccco1.O=C([O-])c1ccco1.[Pt+2] (stereo not drawn): 87

Write down measured LD50 values (Slc:ICR mice) for this compound. `CC1(C)CC(=O)C=C(C(=O)[O-])O1.CC1(C)CC(=O)C=C(C(=O)[O-])O1.NC1CCCCC1N.[Pt+2]`
192

###

# Tested on: Slc:ICR mice
# run-description: Acute toxicity test in mice (LD50, Miller-Tainter method)
# Assay type: in vivo
# recorded-conditions: intraperitoneal, Slc:ICR mice (male), death rate on the 14th day
recorded-metric: LD50 values

Example entries and their recorded answers appear below.
NC1CCCCC1N.O=C([O][Pt][O]C(=O)C1(O)CC(O)C(O)C(O)C1)C1(O)CC(O)C(O)C(O)C1 (stereo not drawn): >200 mg/kg
CCOC(=O)CNC(=O)C=CC(=O)[O-].NC1CCCCC1N.[OH-].[Pt+2]: >200 mg/kg

Then there is this molecule:
# return recorded LD50 values for input CC(=O)N1c2ccccc2CC1C(=O)[O-].CC(=O)N1c2ccccc2CC1C(=O)[O-].NC1CCCCC1N.[Pt+2] (racemic)
>200 mg/kg
